# PROTOCOL: Determination of maximum tolerated dose (MTD) without hypercalcemia
# Set-up: species or system mice
# PARTICULARS: female, C57BL/6, mouse, in vivo, po; p.o. daily for four days; highest dose without hypercalcemia (serum calcium>10.7 mg/dl)
MTD at 4 days values for the compounds below.
I only need the number, in µg/kg, no unit after it.

Here's what some known entries look like.
*Q* Assign MTD at 4 days to the following record: C=C1/C(=C\C=C2/CCC[C@@]3(C)C2CCC3[C@](C)(CC#CC(O)(C(F)(F)F)C(F)(F)F)CCCC(C)(C)O)CC(O)C[C@@H]1F (stereo partly shown)
*A* 100

*Q* Assign MTD at 4 days to the following record: C=C1/C(=C\C=C2/CCC[C@@]3(C)C2CCC3[C@](C)(C/C=C\C(O)(C(F)(F)F)C(F)(F)F)CCCC(C)(C)O)CC(O)C[C@@H]1O (stereo partly shown)
*A* 0.3

*Q* Assign MTD at 4 days to the following record: C=C1/C(=C\C=C2/CCC[C@@]3(C)C2CCC3[C@](C)(CC#CC(O)(C(F)(F)F)C(F)(F)F)CCCC(C)(C)O)CC(O)C[C@@H]1O (stereo partly shown)
*A* 0.3

Further cases:
*Q* Assign MTD at 4 days to the following record: C=C1/C(=C\C=C2/CCC[C@@]3(C)C2CCC3[C@@](C)(C/C=C/C(O)(C(F)(F)F)C(F)(F)F)CCCC(C)(C)O)CC(O)C[C@@H]1O (stereo partly shown)
*A* 0.1
